# System: μHF
# experiment summary: Cytotoxicity testing on μHF, viability by ATP (CellTiter Glo)
# Assay type: cell-based, human
# measurement conditions: 1-10-100 ng/ml, 24 h
Peptide text beside a SMILES is read from it.
measurement kind: ATP content relative to threshold (50% of negative control)

CC[C@H](C)[C@H](N)C(=O)N[C@@H](CCC(=O)O)C(=O)N[C@@H](CCCCN)C(=O)N[C@H](C(=O)O)C(C)C [Peptide P12, IEKV] (H-IEKV-OH; N-terminus and C-terminus assumed)    under-threshold
CC(C)[C@H](NC(=O)[C@H](CCCNC(=N)N)NC(=O)[C@@H](N)CC(=O)O)C(=O)O [Peptide P13, DRV] (H-Asp-Arg-Val-OH)    under-threshold
C[C@@H](O)[C@H](NC(=O)[C@H](CCCNC(=N)N)NC(=O)[C@@H](N)CC(=O)O)C(=O)N[C@@H](CC(=O)O)C(=O)O [Peptide P11, DRTD] (H-DRTD-OH; N-terminus and C-terminus assumed)    under-threshold

====

Could you please report measured Mean ATP content in μHF after 24 H treatment for the items listed next?
# Test system: μHF
# experiment summary: Cytotoxicity testing on μHF, viability by ATP (CellTiter Glo)
# Type: cell-based, human
# measurement conditions: 10 ng/ml; N = 5 μHF; CN 1306.1
Peptide text beside a SMILES is read from it.
# number only, unit nM dropped from output

Prompt line: Which Mean ATP content in μHF after 24 H treatment is reported with μHF for this entry: CC(C)C[C@H](NC(=O)[C@H](CCCNC(=N)N)NC(=O)[C@@H](N)CC(=O)O)C(=O)N[C@@H](CCCCN)C(=O)O [Peptide P3, DRLK] (H-DRLK-OH; N-terminus and C-terminus assumed) ?
Response line: 924.8

Prompt line: Quick one: C[C@@H](O)[C@H](NC(=O)[C@H](CCCNC(=N)N)NC(=O)[C@@H](N)CCCCN)C(=O)NCC(=O)O [Peptide P6, KRTG] (H-KRTG-OH; N-terminus and C-terminus assumed)
Response line: 1116.0

Prompt line: Quick one: CC(C)[C@H](NC(=O)[C@H](CCCNC(=N)N)NC(=O)[C@@H](N)CC(=O)O)C(=O)N[C@@H](CCC(=O)O)C(=O)O [Peptide P10, DRVE] (H-DRVE-OH; N-terminus and C-terminus assumed)
Response line: 1706.1

Prompt line: Quick one: NCCCC[C@H](NC(=O)[C@@H](N)CCC(=O)O)C(=O)N[C@@H](CC(=O)O)C(=O)N[C@@H](CC(=O)O)C(=O)O [Peptide P5, EKDD] (H-EKDD-OH; N-terminus and C-terminus assumed)
Response line: 1108.9

====

Could you please report measured Mean ATP content in μHF after 24 H treatment for the items listed next?
# Tested on: μHF
# experiment summary: Cytotoxicity testing on μHF, viability by ATP (CellTiter Glo)
# Format: cell-based, human
# measurement conditions: 1 ng/ml; N = 5 μHF; CN 1306.1
Peptide text beside a SMILES is read from it.
# number only, unit nM dropped from output

Prompt line: # input molecule: C[C@@H](O)[C@H](NC(=O)[C@H](CCCCN)NC(=O)[C@@H](N)CCC(=O)O)C(=O)N[C@@H](CC(=O)O)C(=O)O [Peptide P4, EKTD] (H-EKTD-OH; N-terminus and C-terminus assumed) ; wanted: its Mean ATP content in μHF after 24 H treatment
Response line: 1567.7

Prompt line: Quick one: CC(C)C[C@H](NC(=O)[C@H](CCCNC(=N)N)NC(=O)[C@@H](N)CC(=O)O)C(=O)N[C@@H](CCCCN)C(=O)O [Peptide P3, DRLK] (H-DRLK-OH; N-terminus and C-terminus assumed)
Response line: 1026.2

Prompt line: Quick one: NCCCC[C@H](NC(=O)[C@@H](N)CCC(=O)O)C(=O)N[C@@H](CC(=O)O)C(=O)N[C@@H](CC(=O)O)C(=O)O [Peptide P5, EKDD] (H-EKDD-OH; N-terminus and C-terminus assumed)
Response line: 1263.3

Prompt line: Quick one: N=C(N)NCCC[C@H](NC(=O)[C@@H](N)CC(=O)O)C(=O)N[C@@H](CC(=O)O)C(=O)N[C@@H](CCC(=O)O)C(=O)O [Peptide P8, DRDE] (H-DRDE-OH; N-terminus and C-terminus assumed)
Response line: 1148.5

====

Could you please report measured Mean ATP content in μHF after 24 H treatment for the items listed next?
# System: μHF
# experiment summary: Cytotoxicity testing on μHF, viability by ATP (CellTiter Glo)
# Format: cell-based, human
# measurement conditions: 100 ng/ml; N = 5 μHF; CN 1306.1
Peptide text beside a SMILES is read from it.
# number only, unit nM dropped from output

Prompt line: Which Mean ATP content in μHF after 24 H treatment is reported with μHF for this entry: CC(C)C[C@H](NC(=O)[C@H](CCCNC(=N)N)NC(=O)[C@@H](N)CC(=O)O)C(=O)N[C@@H](CCCCN)C(=O)O [Peptide P3, DRLK] (H-DRLK-OH; N-terminus and C-terminus assumed) ?
Response line: 1631.2

Prompt line: Quick one: CC[C@H](C)[C@H](N)C(=O)N[C@@H](CCC(=O)O)C(=O)N[C@@H](CCCCN)C(=O)N[C@H](C(=O)O)C(C)C [Peptide P12, IEKV] (H-IEKV-OH; N-terminus and C-terminus assumed)
Response line: 370.0

Prompt line: Quick one: NCCCC[C@H](NC(=O)[C@@H](N)CCC(=O)O)C(=O)N[C@@H](CC(N)=O)C(=O)N[C@@H](CC(=O)O)C(=O)O [Peptide P7, EKND] (H-EKND-OH; N-terminus and C-terminus assumed)
Response line: 1258.8
